- Method notes: Half life in dog at 0.5 mg/kg, po administered as single dose
- Type: ADME, organism-based, Canis lupus familiaris
- Measurement context: in vivo
Measured endpoint: half-life
In your response, put the unit directly after the numeric value.

What half-life value was documented for this compound, Cc1cc2c(cc1Cc1ccc(-c3cocn3)cc1)C(=O)N([C@H]1CCOC[C@@H]1O)C2 ?
7.3 h

----------
- Tested on: Rattus norvegicus
- Method notes: Unbound Cmax in rat plasma at 45 mg/kg, po administered as single dose
- Assay type: ADME, organism-based
- Measurement context: in vivo
Measured endpoint: fCmax

# returns recorded fCmax (system: Rattus norvegicus) for Cc1cc2c(cc1Cc1ccc(-c3cocn3)cc1)C(=O)N([C@H]1CCOC[C@@H]1O)C2
2.31 to 3.83 µM

----------
- Method notes: Clearance in dog at 0.1 mg/kg, iv administered as single bolus dose
- Assay type: ADME, organism-based, Canis lupus familiaris
- Measurement context: in vivo
Measured endpoint: clearance (mL/min/kg)
I only need the number, in mL/min/kg, no unit after it.

Given Cc1cc2c(cc1Cc1ccc(-c3cocn3)cc1)C(=O)N([C@H]1CCOC[C@@H]1O)C2 , state its recorded clearance.
1.7

----------
Measured endpoint: IC50 (µM)
Express the result in µM but write the number alone.

GET /values?readout=IC50&system=Dual 3',5'-cyclic-AMP and -GMP phosphodiesterase 11A (Homo sapiens, UniProt Q9HCR9)&item= Cc1cc2c(cc1Cc1ccc(-c3cocn3)cc1)C(=O)N([C@H]1CCOC[C@@H]1O)C2
5.06

----------
- Method notes: Oral bioavailability in dog at 0.5 mg/kg administered as single dose
- Type: ADME, organism-based, Canis lupus familiaris
- Measurement context: in vivo
Measured endpoint: bioavailability
Note to self: number, then unit, no commentary.

Fill in: bioavailability of Cc1cc2c(cc1Cc1ccc(-c3cocn3)cc1)C(=O)N([C@H]1CCOC[C@@H]1O)C2 is ___
65%

----------
- Method notes: Thermodynamic solubility of the compound in FeSSIF at pH 6.3
- Measurement context: read-out: Therm_solubility
Measured endpoint: solubility thermodynamic

Which value of solubility thermodynamic has been reported for Cc1cc2c(cc1Cc1ccc(-c3cocn3)cc1)C(=O)N([C@H]1CCOC[C@@H]1O)C2 in the records?
39.7 µg/mL

----------
- Tested target: Muscarinic acetylcholine receptor M3 (Homo sapiens)
- Sequence (P20309 whole entry): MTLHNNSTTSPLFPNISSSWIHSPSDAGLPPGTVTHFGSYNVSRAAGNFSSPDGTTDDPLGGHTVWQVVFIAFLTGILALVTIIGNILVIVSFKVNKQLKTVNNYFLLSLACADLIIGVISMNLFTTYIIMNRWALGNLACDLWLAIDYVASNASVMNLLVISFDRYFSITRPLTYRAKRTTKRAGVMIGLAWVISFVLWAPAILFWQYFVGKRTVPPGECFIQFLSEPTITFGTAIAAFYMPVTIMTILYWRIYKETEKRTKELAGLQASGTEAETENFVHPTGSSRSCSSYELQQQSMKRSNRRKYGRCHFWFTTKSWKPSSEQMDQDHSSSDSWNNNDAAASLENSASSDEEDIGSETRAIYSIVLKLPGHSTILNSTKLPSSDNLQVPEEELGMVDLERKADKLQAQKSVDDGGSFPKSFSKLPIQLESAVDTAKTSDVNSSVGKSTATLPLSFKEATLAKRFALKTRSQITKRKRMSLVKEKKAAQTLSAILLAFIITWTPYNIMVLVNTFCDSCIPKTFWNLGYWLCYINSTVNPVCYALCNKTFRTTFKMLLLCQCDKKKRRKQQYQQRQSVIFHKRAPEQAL
- Method notes: Agonist activity at human muscarinic acetylcholine receptor M3 expressed in CHO cells assessed as increase in calcium mobilization incubated for 10 mins by Fluo-8-AM dye based FLIPR assay
- Assay type: cell-based
pEC50: −log10 of the molar value.
Measured endpoint: pEC50

Give pEC50 (Muscarinic acetylcholine receptor M3 (Homo sapiens)) of the following compound: Cc1cc2c(cc1Cc1ccc(-c3cocn3)cc1)C(=O)N([C@H]1CCOC[C@@H]1O)C2
< 5.00

----------
- Method notes: Ratio of unbound AUC in iv or po dosed mouse brain to plasma
- Type: ADME, organism-based
Measured endpoint: Kp uu
Just the number, please, no unit after it.

Requested field: Kp uu. Item: Cc1cc2c(cc1Cc1ccc(-c3cocn3)cc1)C(=O)N([C@H]1CCOC[C@@H]1O)C2
0.3

----------
- Tested on: Mus musculus
- Method notes: In vivo agonist activity at muscarinic acetylcholine receptor M1 in C57BL/6 mouse assessed as unbound brain concentration required to show 2 fold increase in IP1 accumulation in striatum at 1 to 10 mg/kg, sc measured after 2 hrs
- Type: organism-based
Provide the reported Drug uptake(free) of each item.
Express it in nM; write the number only.

Given the entry Cc1ccc(Cc2cc3c(=O)n([C@H]4CCCC[C@@H]4O)cnc3c3ccccc23)cn1 [MK-7622] , report its measured Drug uptake(free).
4

Using the record for Cc1cnc(C(=O)N[C@H]2CCOC[C@@H]2O)cc1Cc1ccc(-c2cscn2)cc1 , report its Drug uptake(free).
14

Value lookup for Drug uptake(free); key = Cn1ccc(-c2ccc(Cn3cc(C(=O)N[C@H]4CCOC[C@@H]4O)c4ncccc43)cc2)n1
32

Would you kindly share the measured Drug uptake(free) for Cc1cc2c(cc1Cc1ccc(-c3cocn3)cc1)C(=O)N([C@H]1CCOC[C@@H]1O)C2 ?
22

----------
- Method notes: Ratio of unbound Cmax in dog brain assessed as convulsions at 15 mg/kg, po administered as single dose to unbound brain concentration for agonist activity at muscarinic acetylcholine receptor M1 in C57BL/6 mouse assessed as required to show 2 fold increase in IP1 accumulation in striatum at 1 to 10 mg/kg, sc
- Format: organism-based
Measured endpoint: selectivity ratio
Provide a numeric answer; units are not to be included.

Quick check: selectivity ratio of Cc1cc2c(cc1Cc1ccc(-c3cocn3)cc1)C(=O)N([C@H]1CCOC[C@@H]1O)C2 ?
15

Which measured selectivity ratio value corresponds to Cc1cnc(C(=O)N[C@H]2CCOC[C@@H]2O)cc1Cc1ccc(-c2cscn2)cc1 ?
20

----------
Can you tell me EC50 for the items I'm about to list?
- Tested target: Muscarinic acetylcholine receptor M1 (Homo sapiens, UniProt P11229)
- Sequence (P11229 whole entry): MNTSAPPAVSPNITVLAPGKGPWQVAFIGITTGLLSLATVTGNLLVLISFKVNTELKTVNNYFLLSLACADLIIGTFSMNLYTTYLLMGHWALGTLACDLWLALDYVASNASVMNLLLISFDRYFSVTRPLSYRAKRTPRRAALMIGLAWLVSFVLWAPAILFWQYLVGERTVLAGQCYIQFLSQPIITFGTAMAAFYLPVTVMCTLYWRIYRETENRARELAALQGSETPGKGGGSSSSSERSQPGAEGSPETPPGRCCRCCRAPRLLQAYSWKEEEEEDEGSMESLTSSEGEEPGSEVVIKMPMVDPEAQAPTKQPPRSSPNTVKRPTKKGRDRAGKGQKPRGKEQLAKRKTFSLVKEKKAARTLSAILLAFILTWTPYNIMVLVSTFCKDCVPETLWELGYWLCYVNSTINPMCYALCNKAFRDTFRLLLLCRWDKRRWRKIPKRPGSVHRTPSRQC
- Method notes: Agonist activity at human muscarinic acetylcholine receptor M1 expressed in CHO cells assessed as increase in calcium mobilization incubated for 10 mins by Fluo-8-AM dye based FLIPR assay
- Format: cell-based

What EC50 value was documented for this compound, Cc1cnc(C(=O)N[C@H]2CCOC[C@@H]2O)cc1Cc1ccc(-c2cscn2)cc1 ?
> 4 µM

GET /values?readout=EC50&item= Cc1cc2c(cc1Cc1ccc(-c3cocn3)cc1)C(=O)N([C@H]1CCOC[C@@H]1O)C2
≥ 5 µM

EC50 for Cc1ccc(Cc2cc3c(=O)n([C@H]4CCCC[C@@H]4O)cnc3c3ccccc23)cn1 [MK-7622] ?
> 2 µM

----------
Provide the recorded CLint scaled for the entries that follow.
- Method notes: Intrinsic clearance in human liver microsomes
- Type: ADME, microsome
- Measurement context: read-out: CLH
Give just the numeric value; mL/min/kg need not be written.

Please give the measured CLint scaled for this molecule: Cc1cn(-c2ccc(Cc3cc4c(cc3C)CN([C@H]3CCOC[C@@H]3O)C4=O)cc2)cn1
30

Recorded CLint scaled of Cc1nc(-c2ccc(Cc3cc4c(cc3C)CN([C@H]3CCOC[C@@H]3O)C4=O)cc2)co1 , please.
13

Consider the molecule Cc1cc2c(cc1Cc1ccc(-c3cscn3)cc1)C(=O)N([C@H]1CCOC[C@@H]1O)CC2 and give its measured CLint scaled.
25

Value lookup for CLint scaled; key = Cc1cc2c(cc1Cc1ccc(-c3cnn(C)c3)cc1)C(=O)N([C@H]1CCOC[C@@H]1O)C2
15

Find the recorded CLint scaled belonging to Cc1cc2c(cc1Cc1ccc(-c3cocn3)cc1)C(=O)N([C@H]1CCOC[C@@H]1O)CC2 and report it.
13

What measured CLint scaled goes with Cc1nc(-c2ccc(Cc3cc4c(cc3C)CCN([C@H]3CCOC[C@@H]3O)C4=O)cc2)co1 ?
21

Look up CLint scaled: Cc1cc2c(cc1Cc1ccc(-c3cscn3)cc1)C(=O)N([C@H]1CCOC[C@@H]1O)C2
10

Given Cc1cc2c(cc1Cc1ccc(-n3cccn3)cc1)C(=O)N([C@H]1CCOC[C@@H]1O)CC2 , state its recorded CLint scaled.
15

----------
- Method notes: Ratio of unbound AUC in rat brain to plasma at 2 mg/kg, po or 0.5 mg/kg, iv administered as single bolus dose
- Type: ADME, organism-based
Measured endpoint: Kp uu

May I ask what Kp uu has been recorded for Cc1cc2c(cc1Cc1ccc(-c3cocn3)cc1)C(=O)N([C@H]1CCOC[C@@H]1O)C2 ?
0.2

----------
- Method notes: Unbound plasma concentration in dog at 0.5 mg/kg, po or 0.1 mg/kg, iv administered as single bolus dose
- Assay type: ADME, organism-based, Canis lupus familiaris
Measured endpoint: fraction unbound
Provide a numeric answer; units are not to be included.

Request the reported fraction unbound associated with Cc1cc2c(cc1Cc1ccc(-c3cocn3)cc1)C(=O)N([C@H]1CCOC[C@@H]1O)C2
0.059

----------
- System: MDR1
- Method notes: Efflux ratio of permeability from basolateral to apical side over apical to basolateral side in MDCK1 cells expressing MDR1
- Format: ADME, cell-based, Canis lupus familiaris
- Measurement context: dog, MDCK-MDR1
Checkbox rule: efflux ratio lower than 20 = label 1; efflux ratio not lower than 20 = label 0.

Decide: efflux ratio of Cc1cn(-c2ccc(Cc3cc4c(cc3C)CN([C@H]3CCOC[C@@H]3O)C4=O)cc2)cn1 strictly below 20?
label 0

Consider the compound Cc1cc2c(cc1Cc1ccc(-c3cnn(C)c3)cc1)C(=O)N([C@H]1CCOC[C@@H]1O)C2 . Is its efflux ratio strictly less than 20?
label 1

A record lists Cc1cc2c(cc1Cc1ccc(-n3cccn3)cc1)C(=O)N([C@H]1CCOC[C@@H]1O)C2 . Is its efflux ratio below 20?
label 1

Could you please tell me whether efflux ratio recorded for Cc1cc2c(cc1Cc1ccc(-c3cocn3)cc1)C(=O)N([C@H]1CCOC[C@@H]1O)CC2 is less than 20?
label 1

Decide: efflux ratio of Cc1nc(-c2ccc(Cc3cc4c(cc3C)CCN([C@H]3CCOC[C@@H]3O)C4=O)cc2)co1 strictly below 20?
label 1

Does the reported efflux ratio of the following compound sit strictly below 20? Cc1cc2c(cc1Cc1ccc(-c3cocn3)cc1)C(=O)N([C@H]1CCOC[C@@H]1O)C2
label 1
